ASSAY SYSTEM: T1, human RSPO3 (human, UniProt Q9BXY4 22-272)
T1 construct: Recombinant human RSPO3 protein (Genentech); also called huRSPO3; hRSPO3
T1 sequence: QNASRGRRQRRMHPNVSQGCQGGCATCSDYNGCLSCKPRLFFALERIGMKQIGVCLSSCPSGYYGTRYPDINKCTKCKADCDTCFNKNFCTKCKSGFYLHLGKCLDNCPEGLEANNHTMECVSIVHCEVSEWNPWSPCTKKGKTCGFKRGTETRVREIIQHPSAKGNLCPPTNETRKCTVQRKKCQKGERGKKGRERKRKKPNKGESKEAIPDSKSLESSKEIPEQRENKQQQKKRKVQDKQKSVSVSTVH
RUN DESCRIPTION: SPR (BIAcore T200), RSPO3 immobilized, antibody injected, 25 C, 1:1 Langmuir
MEASURED ENDPOINT: koff

{"columns": ["BINDER", "RESULT"],
 "data": [
  ["anti-RSPO3 antibody 5D6 (WO2015/058132) (antibody, V domains shown) VH: EVQLQESGPSLVKPSQTLSLTCSVTGDSITSGYWNWIRKFPGNKFEYMGYISYSGKTYQNPSLKSRISITRDTSKNQYHLQLNSVTTEDTATYYCATYYGYGGPWFAYWGQGTLVTVSA VL: DIVLTQSPSSMYASLGERVTITCKASQDIDSYLSWFQQKPGKSPKTLIYLTNRLVDGVPSRFSGSGSGQDYSLTISSLEYEDMGIYYCLHYDEFPLTFGAGTKLEIK", "0.000127 s⁻¹"],
  ["hu4A6.L4H2 (antibody, V domains shown, CDR graft only (L4, H2); also called humanized 4A6) VH: EVQLVESGGGVVQPGRSLRLSCAASGFTFSDYDMAWVRQAPGKGLEWVATIIYDGSRTYYRDSVKGRFTISRDNSKNTLYLQMNSLRAEDTAVYYCAAHDRSFDYWGQGTMVTVSS VL: DIQMTQSPSSLSASVGDRVTITCLASEDISNDLVWYQQKPGKAPKLLIYAASRLQDGVPSRFSGSGFGTDFTLTISSLQPEDFATYYCQQSYKYLPTFGQGTKLEIK", "8.47e-05 s⁻¹"],
  ["hu11C10.L5H1 (antibody, V domains shown, CDR graft light chain L5 with H1; also called humanized 11C10) VH: EVQLVESGGGVVQPGRSLRLSCAASGFTFSDYDMAWVRQAPGKGLEWVATIIYDGSRTYYRDSVKGRFTISRDNSKNTLYLQMNSLRAEDTAVYYCATHDKTFDYWGQGTMVTVSS VL: DIQLTQSPSSLSASVGDRVTITCRASEDIYSDLAWYQQKPGKAPKLLIYDVNSLIHGVPSRFSGSGSGTDFTLTISSLQPEDFATYYCQQYDNYPNTFGQGTKLEIK", "0.00145 s⁻¹"]
]}
